# Procedure Text: Evaluated for time-dependent and irreversible inhibitor of bovine S-adenosyl-L-homocysteine
# Set-up: species or system Bos taurus
Measured Attribute: pKi
Reminder that pKi is minus the log10 of a molar concentration.

Which pKi reading was recorded for the compound C#C[C@H]1OC(n2cnc3c(N)ncnc32)[C@H](O)[C@@H]1O (stereo partly specified) ?
6.76
